Heads up, these compounds all have IC50 values measured for purified BACE protein (β-secretase) (Homo sapiens).
Answers are plain numbers, in µM.

| compound | targetOrSystem | measurementLabel | unitsOfMeasure | readoutValue |
| --- | --- | --- | --- | --- |
| O=C(CC(c1ccccc1)c1ccccc1)C1=C(O)C(CCCN2CCOCC2)OC1=O (centres unmarked) | purified BACE protein (β-secretase) (Homo sapiens) | IC50 | µM | 85 |

For every item below, please supply its IC50.
1. O=C(Cc1cn(Cc2ccc(F)cc2)c2ccccc12)C1=C(O)C(CC2CCCCC2)OC1=O (centres unmarked)
2. CC(Cc1ccc(C(C)(C)C)cc1)C(=O)C1=C(O)C(Cc2ccccc2)OC1=O (centres unmarked) [Example D2]
3. O=C(CCCC1CCCCC1)C1=C(O)C(CCc2ccccc2)OC1=O (racemic)
4. O=C(Cn1c2ccccc2c2ccccc21)C1=C(O)C(CCc2ccccc2)NC1=O (centres unmarked)

Completion:
15
33
57
36
